# target: human Somatostatin 4 Receptor (SSTR4) (Homo sapiens (Human), UniProt P31391)
# Sequence (P31391 whole entry): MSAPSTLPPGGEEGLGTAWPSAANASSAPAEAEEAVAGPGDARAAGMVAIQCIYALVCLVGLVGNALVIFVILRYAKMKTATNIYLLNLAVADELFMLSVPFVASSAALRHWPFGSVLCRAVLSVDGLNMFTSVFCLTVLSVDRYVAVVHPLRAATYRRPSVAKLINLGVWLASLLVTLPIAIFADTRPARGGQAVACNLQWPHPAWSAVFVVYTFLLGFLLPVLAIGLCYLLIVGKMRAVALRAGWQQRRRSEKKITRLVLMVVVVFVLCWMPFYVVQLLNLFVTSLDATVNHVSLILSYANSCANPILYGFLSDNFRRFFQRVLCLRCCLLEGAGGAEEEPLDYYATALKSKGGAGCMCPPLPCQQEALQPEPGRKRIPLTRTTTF
# experiment_summary: cAMP assay with human somatostatin 4 receptor (hSSTR4 expressing H4 cells)
# condition_set: read-out: SSTR4 agonism EC50
quantity: EC50 (nM)

Consider the worked cases shown below.
| compound | target | unit_info | obs_value |
| --- | --- | --- | --- |
| Cc1cc2ccccc2c(C(C)(C)NC(=O)C2CNCCOC2)n1 (racemic) [Example 44] | human Somatostatin 4 Receptor (SSTR4) (Homo sapiens (Human), UniProt P31391) | nM | 7 |
| C[C@H](NC(=O)[C@@H]1CNCCO1)c1cccc2ccccc12 | human Somatostatin 4 Receptor (SSTR4) (Homo sapiens (Human), UniProt P31391) | nM | 51.2 |
| Cc1cccc2c(C(C)(C)NC(=O)C3CNCCOC3)noc12 (single isomer, unassigned) [Example 55] | human Somatostatin 4 Receptor (SSTR4) (Homo sapiens (Human), UniProt P31391) | nM | 2.9 |
| CC(C)(NC(=O)C1CNCCOC1)c1noc2c(F)cccc12 (racemic) [Example 62] | human Somatostatin 4 Receptor (SSTR4) (Homo sapiens (Human), UniProt P31391) | nM | 65.7 |
| Cn1nc(C(C)(C)NC(=O)C2CNCCOC2)c2ccccc21 (single isomer, unassigned) [Example 21] | human Somatostatin 4 Receptor (SSTR4) (Homo sapiens (Human), UniProt P31391) | nM | 3.2 |
| Cc1nnc(C(C)(C)NC(=O)C2CNCCOC2)c2ccccc12 (racemic) | human Somatostatin 4 Receptor (SSTR4) (Homo sapiens (Human), UniProt P31391) | nM | 11.7 |

(P) Cn1nc(C(C)(C)NC(=O)[C@@H]2CNCCO2)c2c(F)cccc21
(Q) Cn1nc(C(C)(C)NC(=O)C2CNCCOC2)c2cccc(F)c21 (single isomer, unassigned) [Example 78]
(R) Cn1nc(C(C)(C)NC(=O)C2CNCCOC2)c2cccc(Cl)c21 (single isomer, unassigned) [Example 82]
Prompt: Order the records by EC50, with each subsequent value no larger than the one before. // format: requested-order list of labels
Completion: Q, P, R

(1) CC(C)(NC(=O)C1CNCCOC1)c1n[nH]c2c(Cl)cccc12 (racemic) [Example 92]
(2) CC(C)(NC(=O)C1CNCCOC1)c1ncc2c(Cl)cccn12 (single isomer, unassigned) [Example 120]
(3) Cc1cccc2c(C(C)(C)NC(=O)[C@@H]3CNCCO3)cnn12
(4) Cc1ncc(C(C)(C)NC(=O)C2CNCCOC2)c2ccccc12 (single isomer, unassigned) [Example 42]
Prompt: Arrange these 4 compounds in increasing order of EC50. Please list each label once, in the requested order.
Completion: 1, 2, 3, 4

----------
# target: human Somatostatin 4 Receptor (SSTR4) (Homo sapiens (Human))
# experiment_summary: cAMP assay with human somatostatin 4 receptor (hSSTR4 expressing H4 cells)
# Format: cell-based
# condition_set: read-out: SSTR4 agonism EC50
quantity: EC50 (nM)

| molecule | target | unit_info | EC50 |
| --- | --- | --- | --- |
| Cc1cccc2c(C(C)(C)NC(=O)C3CNCCOC3)cnn12 (single isomer, unassigned) [Example 34] | human Somatostatin 4 Receptor (SSTR4) (Homo sapiens (Human)) | nM | 5.7 |
| Cc1cccn2c(C(C)(C)NC(=O)C3CNCCCO3)ncc12 (single isomer, unassigned) [Example 145] | human Somatostatin 4 Receptor (SSTR4) (Homo sapiens (Human)) | nM | 29.1 |

(I) COc1cccn2c(C(C)(C)NC(=O)C3CNCCOC3)ncc12 (single isomer, unassigned) [Example 124]
(II) Cc1cccc2c(C(C)(C)NC(=O)C3CNCCOC3)nn(C)c12 (racemic) [Example 84]
(III) Cn1nc(C(C)(C)NC(=O)C2CNCCCO2)c2ccccc21 (racemic) [Example 23]
(IV) Cn1nc(C(C)(C)NC(=O)[C@@H]2CNCCO2)c2ccccc21
(V) CC(C)(COc1cnccc1C(F)(F)F)NC(=O)C1CNCCOC1 (centres unmarked)
Prompt: Let's sort these by EC50, smallest first. Go ahead? List labels; respect the requested ordering.
Completion: II, IV, III, V, I
(II: 4.5 nM, IV: 13.3 nM, III: 36.5 nM, V: 272 nM, I: 1000 nM)

----------
# target: human Somatostatin 4 Receptor (SSTR4) (Homo sapiens (Human))
# experiment_summary: cAMP assay with human somatostatin 4 receptor (hSSTR4 expressing H4 cells)
# condition_set: read-out: SSTR4 agonism EC50
quantity: EC50 (nM)

Worked set:
| molecule | target | EC50, nM |
| --- | --- | --- |
| Cc1cccc2c(C(C)(C)NC(=O)[C@@H]3CNCCO3)n[nH]c12 [Example 57] | human Somatostatin 4 Receptor (SSTR4) (Homo sapiens (Human)) | 2.4 |
| Cc1cccc2c(C(C)(C)NC(=O)C3CNCCOC3)noc12 (racemic) [Example 54] | human Somatostatin 4 Receptor (SSTR4) (Homo sapiens (Human)) | 8.2 |
| CC(C)(COc1nccc2ccccc12)NC(=O)C1CNCCOC1 (racemic) [Example 16] | human Somatostatin 4 Receptor (SSTR4) (Homo sapiens (Human)) | 393 |
| CC(C)(COc1nccc2ccccc12)NC(=O)C1CNCCOC1 (single isomer, unassigned) [Example 18] | human Somatostatin 4 Receptor (SSTR4) (Homo sapiens (Human)) | 209 |
| Cn1nc(C(C)(C)NC(=O)C2CNCCOC2)c2ccccc21 (single isomer, unassigned) [Example 22] | human Somatostatin 4 Receptor (SSTR4) (Homo sapiens (Human)) | 192 |

(a) Cc1cccn2c(C(C)(C)NC(=O)C3CNCCOC3)nc(C3CC3)c12 (racemic) [Example 138]
(b) Cc1cc2ccccc2c(C(C)(C)NC(=O)C2CNCCOC2)n1 (single isomer, unassigned) [Example 45]
(c) Cc1cccn2c(C(C)(C)NC(=O)C3CCNCCO3)ncc12 (single isomer, unassigned) [Example 142]
Prompt: Thanks in advance: please rank these 3 entries by EC50, highest to lowest. Dear reader, please state the labels in the requested order.
Completion: b, c, a
(b: 795 nM, c: 90.5 nM, a: 59.7 nM)

----------
# target: UniProtKB P31391
# experiment_summary: cAMP assay with human somatostatin 4 receptor (hSSTR4 expressing H4 cells)
# condition_set: read-out: SSTR4 agonism EC50
quantity: EC50 (µM)

(A) Cc1cccn2c(C(C)(C)NC(=O)C3CNCCOC3)ccc12 (single isomer, unassigned) [Example 136]
(B) CC(C)(NC(=O)C1CNCCOC1)c1n[nH]c2c(Cl)cccc12 (single isomer, unassigned) [Example 93]
Prompt: Task for the reader: decide whether A or B has the larger EC50. Choose, then provide that item's label.
Completion: A
(A: 0.0037 µM, B: 0.0014 µM)

(A) Cc1cccn2c(C(C)(C)NC(=O)C3CNCCOC3)ccc12 (racemic) [Example 135]
(B) Cc1cccc2c(C(C)(C)NC(=O)C3CNCCOC3)noc12 (single isomer, unassigned) [Example 56]
Prompt: Lower EC50: A or B ? Record your answer as the label of the chosen record.
Completion: A

(A) CC(C)(NC(=O)C1CNCCCO1)c1noc2c(F)cccc12 (single isomer, unassigned) [Example 66]
(B) Cn1nc(C(C)(C)NC(=O)[C@@H]2CNCCO2)c2ccc(F)cc21
Prompt: Name the one with the greater EC50 value, either A or B as given. Respond with the label that goes with your answer.
Completion: A

----------
# target: UniProtKB P30874
# Sequence (P30874 whole entry): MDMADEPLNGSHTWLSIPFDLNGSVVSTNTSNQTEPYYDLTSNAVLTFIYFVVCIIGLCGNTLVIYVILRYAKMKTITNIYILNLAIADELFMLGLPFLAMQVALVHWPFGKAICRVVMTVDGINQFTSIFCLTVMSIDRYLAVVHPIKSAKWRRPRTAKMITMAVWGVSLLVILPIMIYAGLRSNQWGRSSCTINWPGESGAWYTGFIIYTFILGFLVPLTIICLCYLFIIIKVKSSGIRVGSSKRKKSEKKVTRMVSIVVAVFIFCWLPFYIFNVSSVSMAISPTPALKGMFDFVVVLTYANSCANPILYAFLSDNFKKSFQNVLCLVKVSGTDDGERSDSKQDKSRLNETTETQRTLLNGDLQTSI
# experiment_summary: Radioligand binding assay, CHO cell membranes expressing recombinant human SSTR2
quantity: Ki (µM)

| compound | Ki [µM] |
| --- | --- |
| Cn1nc(C(C)(C)NC(=O)C2CNCCOC2)c2ccccc21 (single isomer, unassigned) | 9.6 |
| Cn1nc(C(C)(C)NC(=O)C2CNCCCO2)c2ccccc21 (single isomer, unassigned) | 9.6 |
| Cc1cccn2c(C(C)(C)NC(=O)[C@@H]3CNCCO3)ncc12 | 9.63 |
| Cn1nc(C(C)(C)NC(=O)[C@@H]2CNCCO2)c2ccccc21 | 9.63 |

----------
# target: human Somatostatin 4 Receptor (SSTR4) (Homo sapiens (Human))
# experiment_summary: cAMP assay with human somatostatin 4 receptor (hSSTR4 expressing H4 cells)
# condition_set: read-out: SSTR4 agonism EC50
pEC50: −log10 of the molar value.
quantity: pEC50

Known pEC50 results, listed for orientation:
| compound | pEC50 |
| --- | --- |
| CC(C)(NC(=O)[C@H]1CNCCO1)c1cccc2ncccc12 | 6.59 |
| Cc1cccn2c(C(C)(C)NC(=O)[C@@H]3CNCCO3)ncc12 | 8.35 |
| CC(C)(NC(=O)[C@@H]1CNCCO1)c1nc(C2CC2)c2c(F)cccn12 | 7.22 |

(a) Cc1cccn2c(C(C)(C)NC(=O)C3CNCCOC3)ccc12 (single isomer, unassigned) [Example 137]
(b) Cn1nc(C(C)(C)NC(=O)C2CNCCOC2)c2ccccc21 (racemic) [Example 20]
(c) CC(C)(NC(=O)[C@@H]1CNCCO1)c1noc2c(F)cccc12
(d) CC(C)(NC(=O)C1CCNCCO1)c1noc2c(F)cccc12 (single isomer, unassigned) [Example 70]
(e) Cc1nc(C(C)(C)NC(=O)C2CNCCOC2)c2cccc(C)c2n1 (racemic) [Example 133]
Prompt: Your job: order these 5 records by pEC50, ascending. Response field: labels, in requested order.
Completion: a, d, c, e, b
